System: mouse and human plasma, RED dialysis, LC/MS/MS, 4 h
experimentNotes: plasma protein binding, mouse and human, late-stage follow-up, ADME assay for GPR30 and estrogen receptor ligands, biochemical (AID 623910)
runConditions: mouse plasma binding; at 10 µM
attributeMeasured: plasma protein binding

• CC(=O)c1ccc2c(c1)[C@@H]1C=CC[C@@H]1[C@H](c1cc3c(cc1Br)OCO3)N2 = 99.5%

----------
Test system: mouse and human plasma, RED dialysis, LC/MS/MS, 4 h
experimentNotes: plasma protein binding, mouse and human, late-stage follow-up, ADME assay for GPR30 and estrogen receptor ligands, biochemical (AID 623910)
runConditions: at 1 µM
attributeMeasured: plasma protein binding (%)

* CC(=O)c1ccc2c(c1)[C@@H]1C=CC[C@@H]1[C@H](c1cc3c(cc1Br)OCO3)N2 | 99.8

----------
Tested on: mouse and human plasma, RED dialysis, LC/MS/MS, 4 h
experimentNotes: plasma protein binding, mouse and human, late-stage follow-up, ADME assay for GPR30 and estrogen receptor ligands, biochemical (AID 623910)
runConditions: human plasma binding; at 10 µM
attributeMeasured: plasma protein binding (%)

• CC(=O)c1ccc2c(c1)[C@@H]1C=CC[C@@H]1[C@H](c1cc3c(cc1Br)OCO3)N2 = 99.8

----------
System: mouse and human plasma, RED dialysis, LC/MS/MS, 4 h
experimentNotes: plasma protein binding, mouse and human, late-stage follow-up, ADME assay for GPR30 and estrogen receptor ligands, biochemical (AID 623910)
runConditions: mouse plasma binding; at 1 µM
attributeMeasured: plasma protein binding (%)

* CC(=O)c1ccc2c(c1)[C@@H]1C=CC[C@@H]1[C@H](c1cc3c(cc1Br)OCO3)N2 | 99.8
